Item-by-item account of Percent Effect
Tested on: Wolbachia pipientis
Assay: Anti-Wolbachia Cell-Based Screen
Type: functional
Parameters: scale not given: in the data most compounds retested in dose-response had high values
Details: 5 µM
The whole screen tested about 48,000 compounds, of which about 13,000 (27%) showed an effect of 50% or more. The list shows a part of the results.
Give the value, in units of %, as a plain number.

Past entries and their recorded results:
molecule	tgt	Percent Effect (%)
CN(C)c1cc(CNCc2cccc3c2OCCO3)ccn1	Wolbachia pipientis	-14.59
O=C(NCCO)C1(CC2CC(c3ccc(F)cc3)=NO2)CCOCC1 (configuration not stated)	Wolbachia pipientis	103.4

Percent Effect lookup needed for `Cc1noc(C2CCN(Cc3cc(=O)n(C)c(=O)n3C)CC2)n1` , thanks.
2.603

What do you get for `O=C(c1cccnc1SC/C=C/c1ccccc1)N1CC[C@H](O)C1` ?
8.97

What do you get for COCCN1CCC(NCc2cc(F)ccc2F)C1 (configuration not stated) ?
105
